MEASURED ON: Peroxisome proliferator-activated receptor delta (Homo sapiens, UniProt Q03181)
Sequence (Q03181 whole entry): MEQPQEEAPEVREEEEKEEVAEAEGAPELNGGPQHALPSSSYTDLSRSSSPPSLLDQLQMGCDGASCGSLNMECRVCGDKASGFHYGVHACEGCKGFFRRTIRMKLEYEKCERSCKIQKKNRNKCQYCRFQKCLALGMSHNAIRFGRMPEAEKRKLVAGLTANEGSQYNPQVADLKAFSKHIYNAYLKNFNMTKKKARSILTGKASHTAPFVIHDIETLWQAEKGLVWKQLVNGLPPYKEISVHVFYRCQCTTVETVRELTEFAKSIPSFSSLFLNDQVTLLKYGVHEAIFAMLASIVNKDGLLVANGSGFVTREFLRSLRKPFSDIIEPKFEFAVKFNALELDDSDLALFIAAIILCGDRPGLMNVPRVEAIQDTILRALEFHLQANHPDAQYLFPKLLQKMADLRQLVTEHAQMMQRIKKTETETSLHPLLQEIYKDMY
VALUE TYPE: Ki

Cc1c(C)c2c(c(C)c1O)CCC(C)(COc1ccc(CC3SC(=O)NC3=O)cc1)O2 (centres undefined)	Not Active
O=C(O)Cc1ccc2[nH]c(-c3ccccc3)c(Cc3ccccc3)c2c1	Not Active
O=C1CSC(=O)N1Cc1ccc2[nH]c(-c3ccccc3)c(CCc3ccccc3)c2c1	Not Active
O=C(O)CCc1ccc2[nH]c(-c3ccccc3)c(CCc3ccccc3)c2c1	Not Active

What the record says about O=C(O)Cc1ccc2[nH]cc(CCc3ccccc3)c2c1 : Ki is Not Active

What the record says about O=C(O)Cc1ccc2[nH]c(-c3ccccc3)c(-c3ccccc3)c2c1 : Ki is Not Active

What the record says about CCCc1c(-c2ccccc2)[nH]c2ccc(C(=O)O)cc12 : Ki is Not Active

What the record says about COc1ccc(CCc2c(-c3ccccc3)[nH]c3ccc(CC(=O)O)cc23)cc1 : Ki is Not Active

What the record says about O=C(O)Cc1ccc2[nH]c(-c3ccc(F)cc3)c(CCc3ccc(F)cc3)c2c1 : Ki is Not Active

====

pEC50: −log10 of the molar value.
List of pEC50 tested on Peroxisome proliferator-activated receptor gamma (Homo sapiens, UniProt P37231).
VALUE TYPE: pEC50

Field: example entries. Status: answers known.
Cn1c(-c2ccccc2)c(CCc2ccccc2)c2cc(CC(=O)O)ccc21	5.25
COc1ccc(CCc2c(-c3ccccc3)[nH]c3ccc(CC(=O)O)cc23)cc1	7.36
O=C(O)CCc1ccc2[nH]c(-c3ccccc3)c(CCc3ccccc3)c2c1	5.52
O=C(O)Cc1ccc2[nH]c(-c3ccccc3)c(CCc3ccccc3)c2c1	6.51

[I] CCCc1c(-c2ccccc2)[nH]c2ccc(CC(=O)O)cc12
[II] O=C(O)Cc1ccc2[nH]c(-c3ccc(F)cc3)c(CCc3ccc(F)cc3)c2c1
## Task Which has the smaller recorded pEC50, I or II ? // respond with label for picked entry
## Result I
(I: 5.15, II: 6.47)

====

ASSAY COMMENT: Pharmacokinetic property (oral bioavailability) in rat (dose given as a suspension)
Format: ADME, organism-based
CONDITION DESCRIPTION: in vivo
VALUE TYPE: bioavailability (%)
Give the quantity in %, number only.

What the record says about COc1ccc(CCc2c(-c3ccccc3)[nH]c3ccc(CC(=O)O)cc23)cc1 : bioavailability is 73

====

MEASURED ON: Peroxisome proliferator-activated receptor alpha (Homo sapiens, UniProt Q07869)
Sequence (Q07869 whole entry): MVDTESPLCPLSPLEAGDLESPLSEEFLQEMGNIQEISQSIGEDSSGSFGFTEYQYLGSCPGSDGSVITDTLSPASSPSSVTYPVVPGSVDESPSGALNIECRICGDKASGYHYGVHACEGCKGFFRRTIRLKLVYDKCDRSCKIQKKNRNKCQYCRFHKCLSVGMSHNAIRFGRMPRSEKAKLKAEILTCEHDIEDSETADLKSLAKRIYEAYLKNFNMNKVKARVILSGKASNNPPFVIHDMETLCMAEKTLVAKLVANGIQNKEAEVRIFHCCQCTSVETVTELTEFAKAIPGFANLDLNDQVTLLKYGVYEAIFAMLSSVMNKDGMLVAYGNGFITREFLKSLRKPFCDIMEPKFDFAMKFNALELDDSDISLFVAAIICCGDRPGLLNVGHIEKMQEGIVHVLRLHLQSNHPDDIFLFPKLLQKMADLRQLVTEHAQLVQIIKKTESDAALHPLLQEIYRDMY
ASSAY COMMENT: Binding affinity against Peroxisome Proliferator activated receptor alpha (PPAR alpha); Not active
VALUE TYPE: Ki

Field: example entries. Status: answers known.
Cn1c(-c2ccccc2)c(CCc2ccccc2)c2cc(CC(=O)O)ccc21	Not Active
O=C(O)Cc1ccc2[nH]cc(CCc3ccccc3)c2c1	Not Active
O=C(O)Cc1ccc2[nH]c(-c3ccccc3)cc2c1	Not Active
Cn1c(-c2ccccc2)c(CCc2ccccc2)c2cc(OCC(=O)O)ccc21	Not Active
O=C(O)Cc1ccc2[nH]c(-c3ccc(F)cc3)c(CCc3ccc(F)cc3)c2c1	Not Active

Shifting focus to the compound that follows.
What the record says about O=C(O)Cc1ccc2[nH]c(-c3ccccc3)c(CCc3ccccc3)c2c1 : Ki is Not Active

====

MEASURED ON: Peroxisome proliferator-activated receptor gamma (Homo sapiens)
Sequence (P37231 whole entry): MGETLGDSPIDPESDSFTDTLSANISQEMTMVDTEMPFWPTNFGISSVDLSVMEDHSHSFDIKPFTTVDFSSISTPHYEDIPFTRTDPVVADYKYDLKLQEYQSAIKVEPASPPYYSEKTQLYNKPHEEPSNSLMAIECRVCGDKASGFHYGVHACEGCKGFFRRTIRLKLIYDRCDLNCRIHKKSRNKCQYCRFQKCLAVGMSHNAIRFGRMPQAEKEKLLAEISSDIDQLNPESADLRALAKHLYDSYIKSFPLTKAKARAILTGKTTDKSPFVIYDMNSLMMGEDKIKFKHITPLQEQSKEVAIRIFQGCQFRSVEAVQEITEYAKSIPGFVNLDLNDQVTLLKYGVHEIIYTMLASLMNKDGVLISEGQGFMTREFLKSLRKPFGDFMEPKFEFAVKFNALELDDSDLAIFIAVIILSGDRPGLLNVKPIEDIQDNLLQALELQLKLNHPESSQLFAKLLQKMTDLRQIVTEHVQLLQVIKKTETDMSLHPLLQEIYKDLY
ASSAY COMMENT: Inhibitory concentration of the PPAR gamma)
VALUE TYPE: pIC50
Scale: negative log10 of molar concentration, which is what pIC50 denotes.

What the record says about COc1ccc(CCc2c(-c3ccccc3)[nH]c3ccc(CC(=O)O)cc23)cc1 : pIC50 is 7.30

====

List of Ki tested on Peroxisome proliferator-activated receptor delta (Homo sapiens, UniProt Q03181).

CCc1ccc(CCOc2ccc(CC3SC(=O)NC3=O)cc2)nc1 (stereo unspecified) [PIOGLITAZONE]	Not Active
Cn1c(-c2ccccc2)c(CCc2ccccc2)c2cc(CC(=O)O)ccc21	Not Active
O=C(O)Cc1ccc2[nH]c(-c3ccccc3)c(CCc3ccccc3)c2c1	Not Active
Cn1c(-c2ccccc2)c(CCc2ccccc2)c2cc(OCC(=O)O)ccc21	Not Active
O=C(O)Cc1ccc2[nH]c(-c3ccccc3)cc2c1	Not Active

Shifting focus to the compound that follows.
Per the reported Peroxisome proliferator-activated receptor delta (Homo sapiens, UniProt Q03181) data, CCCc1c(-c2ccccc2)[nH]c2ccc(CC(=O)O)cc12 has Ki of Not Active

====

ASSAY COMMENT: Pharmacokinetic property (half life) in rat
Type: ADME, organism-based
CONDITION DESCRIPTION: in vivo
VALUE TYPE: half-life (h)
Give the quantity in h, number only.

What the record says about COc1ccc(CCc2c(-c3ccccc3)[nH]c3ccc(CC(=O)O)cc23)cc1 : half-life is 3.8

====

List of Ki tested on Peroxisome proliferator-activated receptor gamma (Homo sapiens).
VALUE TYPE: Ki (nM)

O=C(O)Cc1ccc2[nH]c(-c3ccc(F)cc3)c(CCc3ccc(F)cc3)c2c1	490

[1] Cn1c(-c2ccccc2)c(CCc2ccccc2)c2cc(CC(=O)O)ccc21
[2] COc1ccc(CCc2c(-c3ccccc3)[nH]c3ccc(CC(=O)O)cc23)cc1
## Task Task for the reader: decide whether 1 or 2 has the larger Ki. // respond with label for picked entry
## Result 1

Hello, the source for this data is ChEMBL document CHEMBL1132133, in case you need it.
